assay: Half life in human liver microsomes at 1 uM after 60 mins by LC-MS/MS analysis; assay type: ADME

{"columns": ["Entry Smiles", "Qualifier Symbol", "half-life at 1 µM (h)"],
 "data": [
  ["Cl.Cn1cc(CCN)c2c1C(=O)C1=C(C2=O)S(=O)(=O)C=CN1", ">", 4.17],
  ["Cl.NCCc1c[nH]c2c1C(=O)C1=C(NC=CS1(=O)=O)C2=O", "=", 0.617],
  ["CNCCc1cn(C)c2c1C(=O)C1=C(NC=CS1(=O)=O)C2=O.Cl", ">", 4.17],
  ["CNCCc1c[nH]c2c1C(=O)C1=C(NC=CS1(=O)=O)C2=O.Cl", "=", 1.67]
]}
